test system: LOC_OS02G14120-cb001; assay: thermal shift delta Tm vs DMSO control; higher = stronger stabilization (binding); conditions: 12.5 µM; protein concentration 2 µM;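 note: purified Escherichia coli-expressed rice kinase domain construct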
PARAMETER: thermal shift delta Tm (°C)
Just the number please, in °C, no unit attached.

C#Cc1cccc(Nc2ncnc3cc(OCCOC)c(OCCOC)cc23)c1: 1.45
O=C(c1ccc(Nc2nccc(-c3cc4ccccc4s3)n2)cc1)N1CCC(N2CCCC2)CC1: 11.1
CCc1nc(-c2cccc(C)c2)c(-c2ccnc(NC(=O)c3ccccc3)c2)s1: 0.43
CCCCCCCCCCCCCCCCn1cc[n+](Cc2ccccc2)c1C: -1.51

Entry CCS(=O)(=O)Nc1ccc2c(c1)/C(=C(/Nc1ccc(CN3CCCCC3)cc1)c1ccccc1)C(=O)N2 : thermal shift delta Tm on LOC_OS02G14120-cb001 = 13

Entry CCCCCCCCCCCCc1ccc(S(=O)(=O)Nc2nncs2)cc1 : thermal shift delta Tm on LOC_OS02G14120-cb001 = -0.22

Entry COc1cc2/c(=N/c3ccc(Br)cc3F)nc[nH]c2cc1OCC1CCN(C)CC1 [Vandetanib (ZD6474)] : thermal shift delta Tm on LOC_OS02G14120-cb001 = 10.4

Entry CC(C)(CO)n1cc(C(=O)c2cncc(NC(=O)Cc3ccc(Cl)cn3)c2)c2cnc(N)nc21 : thermal shift delta Tm on LOC_OS02G14120-cb001 = 3.51

Entry O=C(O)c1cc(O)c2c(c1)[C@@H]([C@H]1c3cc(C(=O)O)cc(O)c3C(=O)c3c(O[C@@H]4O[C@H](CO)[C@@H](O)[C@H](O)[C@H]4O)cccc31)c1cccc(O[C@@H]3O[C@H](CO)[C@@H](O)[C@H](O)[C@H]3O)c1C2=O [Sennoside B] : thermal shift delta Tm on LOC_OS02G14120-cb001 = 0.03

---

# thermal shift delta Tm per entry
tested on: LOC_OS01G39600-cb002; assay: thermal shift delta Tm vs DMSO control; higher = stronger stabilization (binding); details: 12.5 µM; protein concentration 2 µM
Where a name gives a salt, the structure may show the parent alone.
Just the number please, in °C, no unit attached.

O=S(=O)(NCCNC/C=C/c1ccc(Br)cc1)c1cccc2cnccc12: 0.27
CCN1CCN(Cc2ccc(Nc3ncc(F)c(-c4cc(F)c5nc(C)n(C(C)C)c5c4)n3)nc2)CC1: 0.45
CNC(=O)c1cc(Oc2ccc(NC(=O)Nc3ccc(Cl)c(C(F)(F)F)c3)cc2)ccn1 [Sorafenib Tosylate]: 2.03
OCCn1cc(-c2cnc3nnn(Cc4ccc5ncccc5c4)c3n2)cn1: 0.11
C[C@@H]1COCCN1c1cc(C2([S@](C)(=N)=O)CC2)nc(-c2cc[nH]c3nccc2-3)n1: -0.99
CCCCCCCCCCCCc1ccc(S(=O)(=O)Nc2nncs2)cc1: 0.44

Sample COc1cc2nccc(Oc3ccc(NC(=O)C4(C(=O)Nc5ccc(F)cc5)CC4)cc3)c2cc1OC ; thermal shift delta Tm observed: 1.5

Sample Cn1nccc1Nc1nccc(-c2ccn([C@H](CO)c3ccc(Cl)c(F)c3)c(=O)c2)n1 ; thermal shift delta Tm observed: 0.18

Sample FC(F)(F)c1ccc(/C=C/c2nc(COc3ccc(CCCCn4ccnn4)cc3)co2)cc1 ; thermal shift delta Tm observed: -0.52

Sample CCS(=O)(=O)N1CC(CC#N)(n2cc(-c3ncnc4[nH]ccc34)cn2)C1 ; thermal shift delta Tm observed: 0.17

Sample COc1ccc(-c2cc3nccn3c(Nc3ncccc3C(N)=O)n2)cc1OC ; thermal shift delta Tm observed: 0.18
